Origin of measurements: the NIST ThermoML archive (doi:10.1021/je050001c)

STATED CONDITIONS: 308.15 K; 101.33 kPa; Liquid; Falling or rolling sphere viscometry
READOUT TYPE: viscosity (mPa·s)
The response must be a number in mPa·s with no trailing unit.

Take a look at these entries with their results.
CCC/C=C/COC(C)=O [(E)-2-hexenyl acetate]
0.715
CCCCOC(=O)CCC [butyl butanoate]
0.755

Answer with the recorded viscosity for the compound listed here: CC/C=C\CCOC(=O)C(C)C [cis-3-hexenyl isobutyrate]
0.804

Return value of viscosity for input CCOC(=O)CC [ethyl propanoate] , no commentary.
0.441

###

STATED CONDITIONS: 323.15 K; 101.33 kPa; Liquid; Falling or rolling sphere viscometry
Where a name gives a salt, the structure may show the parent alone.
// classify(record): look up viscosity in ranges low = under 0.5 mPa·s, medium = from 0.5 mPa·s up to 0.6 mPa·s, high = 0.6 mPa·s and over

For orientation, consider the following solved cases.
CC/C=C\CCOC=O [(Z)-3-hexenyl formate]
low
CCOC=O [ethyl methanoate]
low
CCCCOC(C)=O [butyl ethanoate]
low
CC/C=C\CCOC(C)=O [(Z)-3-hexenyl acetate]
medium
CCOC(=O)CC(C)C [ethyl 3-methylbutanoate]
medium
CCOC(=O)CC [ethyl propanoate]
low
CCCCCCOC(C)=O [hexyl ethanoate]
high
CCCC(=O)OCC [ethyl butanoate]
low

In plain terms, what class is CCCCCC(=O)OCC [ethyl hexanoate] ?
medium

Tag the class for CCOC(=O)C(C)CC (stereo unspecified) [ethyl 2-methylbutanoate]
medium

Please let me know in which category the item CCCCOC(=O)CCC [butyl butanoate] belongs.
high

Form: Item = CC/C=C\CCOC(=O)C(C)C [cis-3-hexenyl isobutyrate] ; Class = ?
high

Could you place CCCC(=O)OCCC(C)C [3-methylbutyl butanoate] in its proper category? Many thanks.
high

Looking at CCOC(C)=O [ethyl acetate] , which class would you pick?
low

Each compound maps to one class by viscosity. Which class for CCC/C=C/COC(C)=O [(E)-2-hexenyl acetate] ?
medium
